biological target: human TRPV1 (Homo sapiens, UniProt Q8NER1); construct: Each full-length human TRPA1, TRPV1, TRPV4, and TRPM8 coding regions were introduced into a pcDNA4/TO vector; expressed in transfected cells; host or cells: T-REx-293 cells (tetracycline-induced, pcDNA4/TO vector); experiment: Ca2+ influx assay in TRPV1-expressing T-REx-293 cells; type: cell-based; conditions: T-REx-293; 10 µmol/L test compound; relative to 2 µmol/L capsaicin; read-out: % of Activation Compared to Positive Control against Each Subfamily of TRP Channel TRPV1
Sequence (Q8NER1 whole entry): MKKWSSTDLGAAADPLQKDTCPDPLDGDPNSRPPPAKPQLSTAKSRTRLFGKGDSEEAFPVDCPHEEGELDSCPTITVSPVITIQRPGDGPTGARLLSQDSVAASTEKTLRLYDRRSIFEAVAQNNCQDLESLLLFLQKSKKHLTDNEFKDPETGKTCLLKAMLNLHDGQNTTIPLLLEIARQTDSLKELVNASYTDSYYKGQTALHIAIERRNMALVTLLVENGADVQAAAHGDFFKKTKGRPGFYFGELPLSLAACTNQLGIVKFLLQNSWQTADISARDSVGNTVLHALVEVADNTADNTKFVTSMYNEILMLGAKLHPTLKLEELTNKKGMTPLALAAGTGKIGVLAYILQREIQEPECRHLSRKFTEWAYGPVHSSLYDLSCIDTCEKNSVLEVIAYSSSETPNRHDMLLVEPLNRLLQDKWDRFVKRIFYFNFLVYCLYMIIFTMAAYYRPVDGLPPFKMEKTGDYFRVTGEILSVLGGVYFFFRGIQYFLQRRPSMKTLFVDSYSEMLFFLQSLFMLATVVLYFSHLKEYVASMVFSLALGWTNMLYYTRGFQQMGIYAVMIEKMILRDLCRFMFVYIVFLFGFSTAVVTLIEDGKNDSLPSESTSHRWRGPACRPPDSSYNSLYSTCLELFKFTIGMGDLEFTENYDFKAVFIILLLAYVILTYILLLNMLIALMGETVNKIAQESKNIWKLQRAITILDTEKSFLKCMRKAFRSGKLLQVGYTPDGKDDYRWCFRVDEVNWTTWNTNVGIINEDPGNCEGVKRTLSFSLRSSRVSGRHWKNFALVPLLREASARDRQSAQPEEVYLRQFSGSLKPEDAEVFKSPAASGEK
Listed next: entries and their corresponding activation at 10 µM.
Give a bare numeral; the unit % is implied.

[[record]]
compound = "c1cc2c(cc1[C@H]1OC[C@H]3[C@@H]1CO[C@@H]3c1ccc3c(c1)OCO3)OCO2"
unit_label = "%"
number = -0.1

[[record]]
compound = "O=c1cc(-c2ccc(O)cc2)oc2cc(O)c([C@@H]3O[C@H](CO)[C@@H](O)[C@H](O)[C@H]3O)c(O)c12"
unit_label = "%"
number = 0.2

[[record]]
compound = "CN[C@@H](C)[C@H](O)c1ccccc1 [Ephedrine, (1R,2S)-(−)-Ephedrine, reference compound]"
unit_label = "%"
number = -0.5

[[record]]
compound = "Oc1cc(O)c2c(c1)O[C@H](c1cc(O)c(O)c(O)c1)[C@H](O)C2 [Epigallocatechin]"
unit_label = "%"
number = -0.2


Entry O=C(O)CNC(=O)c1ccccc1 , activation at 10 µM reported as 1
